Listing of entries alongside the reported normalized growth.
assay: chemical genetic growth profiling, strain panel (AID 1159580);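 also: tested at 20 µM; growth read once vehicle control cultures reached saturation at 30 °C; 1 = growth at the plate median or of vehicle wells; lower values mean less growth of the strain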; conditions: S. cerevisiae deletion strains, growth OD, locus YLR268W, strain sec22, stronger effect = lower value
Hit rate of the full screen: of about 5,500 compounds, about 2,000 (36%) were called active. About 18% were inconclusive and are not listed. Some of the results follow.
Note: the reply should be a number with no unit written.

Guide cases for normalized growth, answers given:
molecule="CC(C)CCCC(C)[C@H]1CCC2C3CC[C@@H]4C[C@H](O)CC[C@]4(C)C3CC[C@@]21C (stereo partly drawn)" property="normalized growth" reading=0.999
molecule=CN(C)C(=O)Oc1cccc([N+](C)(C)C)c1 property="normalized growth" reading=0.956
molecule="CC(C)CCCC(C)C1CCC2C3C[C@@H](O)[C@@]4(O)C[C@@H](O)CC[C@]4(C)C3CC[C@]12C (stereo partly drawn)" property="normalized growth" reading=1.05

What value of normalized growth has been reported for the following molecule? CC(C)CCCC(C)C1CCC2C3CC[C@H]4C[C@@H](O)CC[C@]4(C)C3CC[C@]12C (stereo partly drawn) 1.04

And for CC(C)CCCC(C)[C@H]1CCC2C3CC=C4CC(=O)CC[C@]4(C)C3CC[C@@]21C (stereo partly drawn) ? 0.974

And for CC(=O)O[C@H]1CC[C@@]2(C)C(C[C@@H](OC(C)=O)[C@@]3(C)C4=CC(=O)O[C@@H](c5ccoc5)[C@]4(C)CCC23)C1(C)C (stereo partly drawn) ? 1.01

And for CC(=O)O[C@@H]1CC2C(C)(C)C(=O)C=C[C@]2(C)C2CC[C@]3(C)C(=CC(=O)O[C@H]3c3ccoc3)[C@@]21C (stereo partly drawn) ? 0.964

And for CC(=O)O[C@@H]1CC2C(C)(C)[C@H](O)C=C[C@]2(C)C2CC[C@]3(C)C(=CC(=O)O[C@H]3c3ccoc3)[C@@]21C (stereo partly drawn) ? 0.997

Recorded values, source PubChem BioAssay AID1159580.
